# Assayed Target: human SCD1 (Homo sapiens (Human))
# Sequence (O00767 whole entry): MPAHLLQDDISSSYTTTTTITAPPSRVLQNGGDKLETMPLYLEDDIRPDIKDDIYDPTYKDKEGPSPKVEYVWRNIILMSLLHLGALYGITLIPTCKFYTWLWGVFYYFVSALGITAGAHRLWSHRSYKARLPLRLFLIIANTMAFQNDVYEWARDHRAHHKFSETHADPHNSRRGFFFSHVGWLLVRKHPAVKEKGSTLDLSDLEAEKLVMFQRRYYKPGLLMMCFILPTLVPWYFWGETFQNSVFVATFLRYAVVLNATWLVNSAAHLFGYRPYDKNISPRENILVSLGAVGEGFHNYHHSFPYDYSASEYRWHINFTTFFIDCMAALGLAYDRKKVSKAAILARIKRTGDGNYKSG
# Assay Method Text: Yeast growth assay, strain expressing human SCD1 as the sole desaturase (reduced growth as surrogate for SCD inhibition)
# Recorded Conditions: yeast with OLE1 deleted expressing human SCD1 from a plasmid; growth read as OD600 after 40 h at 30° C.; top drug concentration 33.3 μM
pIC50: −log10 of the molar value.
Readout Name: pIC50

Below: 4 compounds and their reported pIC50.
CCc1cc(C(=O)Nc2cnn(Cc3cccc(F)c3)c2)no1 = 7.18
O=C(Nc1cnn(Cc2cccc(F)c2)c1)c1cc(-c2cncs2)on1 = 6.72
O=C(Nc1cnn(Cc2ccccc2)c1)c1cc(-c2ccccn2)on1 = 6.15
CC(C)c1cc(C(=O)Nc2cnn(Cc3ccccc3)c2)no1 = 7.59

[a] O=C(Nc1cnn(Cc2cccc(F)c2)c1)c1cc(-c2nncs2)on1
[b] O=C(c1cc(-c2ccc3c(c2)OCO3)on1)N1CC=C(c2cc(F)ccc2Cl)CC1
Query: Just curious, which one has the larger pIC50 reading, a or b ? Answer by quoting the chosen item's label.
Response: b
(b: 5.49, a: 5.09)

[P] O=C(Nc1cnn(Cc2cccc(F)c2)c1)c1cc(-c2ccco2)on1
[Q] COc1ccc(-c2cc(C(=O)N3CCCC3c3ccccc3F)no2)nc1 (stereo not drawn)
Query: Just curious, which one has the larger pIC50 reading, P or Q ? Answer by quoting the chosen item's label.
Response: P
(P: 8.00, Q: 4.40)
